src = ChEMBL document CHEMBL1201862

Assay system: Hexokinase-1 (Homo sapiens)
Sequence (P19367 whole entry): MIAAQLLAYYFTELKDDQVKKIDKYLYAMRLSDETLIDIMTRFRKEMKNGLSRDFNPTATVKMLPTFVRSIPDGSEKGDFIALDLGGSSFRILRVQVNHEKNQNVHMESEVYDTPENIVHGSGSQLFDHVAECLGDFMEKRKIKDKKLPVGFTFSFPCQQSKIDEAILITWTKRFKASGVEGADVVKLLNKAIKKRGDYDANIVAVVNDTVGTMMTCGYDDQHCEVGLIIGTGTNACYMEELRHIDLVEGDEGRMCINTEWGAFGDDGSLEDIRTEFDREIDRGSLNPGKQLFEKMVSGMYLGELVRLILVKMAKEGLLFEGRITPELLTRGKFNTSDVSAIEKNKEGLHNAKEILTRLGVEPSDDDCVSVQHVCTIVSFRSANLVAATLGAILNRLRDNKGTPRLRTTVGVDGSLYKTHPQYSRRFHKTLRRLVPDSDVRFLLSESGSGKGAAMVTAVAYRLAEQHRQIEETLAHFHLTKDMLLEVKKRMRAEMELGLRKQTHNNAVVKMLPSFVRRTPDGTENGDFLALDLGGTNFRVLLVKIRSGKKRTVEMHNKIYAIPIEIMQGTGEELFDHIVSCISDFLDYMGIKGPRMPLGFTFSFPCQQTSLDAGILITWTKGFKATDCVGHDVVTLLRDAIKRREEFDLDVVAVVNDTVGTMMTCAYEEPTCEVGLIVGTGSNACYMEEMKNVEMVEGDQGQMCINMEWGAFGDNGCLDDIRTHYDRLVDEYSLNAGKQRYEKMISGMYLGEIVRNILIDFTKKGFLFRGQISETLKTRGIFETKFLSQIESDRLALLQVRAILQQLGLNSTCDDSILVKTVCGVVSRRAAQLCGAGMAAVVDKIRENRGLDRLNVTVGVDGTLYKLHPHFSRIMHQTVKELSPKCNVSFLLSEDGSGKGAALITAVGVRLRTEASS
Assay explanation: hexokinase 1 activators, dose response, selectivity assay for HKDC1 activator project, biochemical (AID 504762)
Assay type: functional
The source made the active and inactive calls. Cut-off read from the data, not from the text of the source: active = EC50 of 20 µM or less and inactive = more.
Labels: active, inactive

- Compound: "S=C(NCc1ccccn1)NN=Cc1ccccn1"
  Group label: "inactive"
- Compound: "NC1=C(Cl)C(=O)c2ccc(S(N)(=O)=O)cc2C1=O"
  Group label: "active"
- Compound: "Nn1cnnc1N/N=C/c1cc(Br)cc(Br)c1O"
  Group label: "inactive"
- Compound: "CC(NC(=O)c1sc2cc([N+](=O)[O-])ccc2c1Cl)C(C)(C)C (centres undefined)"
  Group label: "inactive"
